- assay-procedure: Metabolic stability in Sprague-Dawley rat liver microsomes assessed as parent compound remaining at 10 uM preincubated for 10 mins in water bath followed by NADPH addition and measured after 60 mins by LC-MS/MS analysis
- Format: ADME, Microsome
- experimental-conditions: read-out: Stability
readout-kind: remaining at 1 h, 10 µM (%)
Number only, in %; omit the unit.

Qu. Using the record for `CNC(=O)[C@H](C)Cn1cnc2ccc(-c3cnc(OC)c(NS(=O)(=O)c4ccc(F)cc4Cl)c3)cc2c1=O` , report its remaining at 1 h, 10 µM.
Ans. 32

* * *

- assay-procedure: Volume of distribution in Sprague-Dawley rat at 1 mg/kg, iv by HPLC analysis
- Type: ADME, organism-based
- experimental-conditions: in vivo
readout-kind: Vd (L/kg)
Number only, in L/kg; omit the unit.

Qu. Using the record for `CNC(=O)[C@H](C)Cn1cnc2ccc(-c3cnc(OC)c(NS(=O)(=O)c4ccc(F)cc4Cl)c3)cc2c1=O` , report its Vd.
Ans. 0.321
